System Name: T1, human IL-23R endogenously expressed on DB cells (CRL-2289) (human, UniProt Q5VWK5 24-629)
T1 sequence (looked up): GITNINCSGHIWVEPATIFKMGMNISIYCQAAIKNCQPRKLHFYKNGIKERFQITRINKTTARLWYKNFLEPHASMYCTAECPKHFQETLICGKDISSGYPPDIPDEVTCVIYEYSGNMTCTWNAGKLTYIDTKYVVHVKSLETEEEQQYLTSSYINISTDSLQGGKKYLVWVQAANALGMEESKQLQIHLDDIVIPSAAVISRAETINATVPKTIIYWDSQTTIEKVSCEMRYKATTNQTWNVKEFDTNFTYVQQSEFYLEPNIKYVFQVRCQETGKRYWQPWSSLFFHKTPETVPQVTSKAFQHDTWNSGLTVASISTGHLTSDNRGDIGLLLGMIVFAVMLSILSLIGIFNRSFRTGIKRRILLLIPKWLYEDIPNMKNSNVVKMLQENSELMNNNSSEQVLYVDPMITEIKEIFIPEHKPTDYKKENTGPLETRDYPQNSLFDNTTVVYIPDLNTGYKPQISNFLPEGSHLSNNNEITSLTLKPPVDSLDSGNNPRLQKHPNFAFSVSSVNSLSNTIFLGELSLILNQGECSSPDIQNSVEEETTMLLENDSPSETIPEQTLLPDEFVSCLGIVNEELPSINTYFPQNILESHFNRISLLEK
Test Description: cell-based or functional assay
Bridges are numbered along the chain shown (N, C = ends). Primed or numbered codes have the meaning given here. Where no end group is shown, it is not given here. [ ]: non-standard residue; d: D form. 1,3‑dibromopropan‑2‑one(3) = linker giving 1,3-dithio-propan-2-one bridge -SCH2C(=O)CH2S- between Cys; Ala(quinolin-3-yl) = N[C@@H](Cc1cnc2ccccc2c1)C(=O)O; 2Nal = N[C@@H](Cc1ccc2ccccc2c1)C(=O)O; AEF = NCCOc1ccc(C[C@H](N)C(=O)O)cc1; αMeL = CC(C)C[C@](C)(N)C(=O)O; 3Amb = NCc1cccc(C(=O)O)c1
Property Label: IC50 (pSTAT3) (nM)

{"columns": ["Binder", "Reading"],
 "data": [
  ["[3Amb]SCWQC[AEF][2Nal][αMeL]ER[Ala(quinolin-3-yl)]-NH2 (lactam (positions not given here); linker 3-6 via 1,3‑dibromopropan‑2‑one(3); not fully specified (bridges); printed as [(3-Aminomethyl)benzoyl](1c)*SC(2a)WQC(2a)][Y(2-aminoethoxy)][2-Nal][2-Me-Leu]E(1c)R[3-(3-Quinolinyl)-Ala]-[NH2]) [Compound 149]", 4.82]
]}

The reported numbers originate from patent US20250154198A1.
